src = patent US20070122360A1

assay: Measurement of relative permittivity (LCR meter, 100 kHz, 1 V); type: physicochemical
Outcome Measure: Relative Permittivity (at 25° C.)

| Compound | Outcome Measure | Obs Value |
| --- | --- | --- |
| OCCO [Ethylene glycol] | Relative Permittivity (at 25° C.) | 37.7 |
| CC(O)CCO (stereo not drawn) [1,3-dibutylene glycol] | Relative Permittivity (at 25° C.) | 33.5 |
| CC(C)O [Isopropanol] | Relative Permittivity (at 25° C.) | 19.9 |
| CC(O)CO (stereo not drawn) [Propylene glycol] | Relative Permittivity (at 25° C.) | 32.0 |
| CCO [Ethanol] | Relative Permittivity (at 25° C.) | 24.6 |
| OCC(O)CO [Glycerin] | Relative Permittivity (at 25° C.) | 42.5 |
| OCCOCCO [Diethylene glycol] | Relative Permittivity (at 25° C.) | 33.0 |
| O [Water] | Relative Permittivity (at 25° C.) | 78.3 |
| CC(O)COC(C)CO (stereo not drawn) [Dipropylene glycol] | Relative Permittivity (at 25° C.) | 26.2 |

====

test: Measurement of vapor pressure (vapor-liquid equilibrium apparatus)
Measured Vapor pressure kPa (at 25° C.), listed per entry.
Outcome Measure: Vapor pressure kPa (at 25° C.) (kPa)

| Molecule | Obs Value |
| --- | --- |
| CC(C)O [Isopropanol] | 5819 |
| OCCOCCO [Diethylene glycol] | 11 |
| CC(O)COC(C)CO (centres unmarked) [Dipropylene glycol] | 0 |
| CC(O)CCO (centres unmarked) [1,3-dibutylene glycol] | 108 |
| CC(O)CO (centres unmarked) [Propylene glycol] | 1 |
| CCO [Ethanol] | 7948 |
| OCCO [Ethylene glycol] | 59 |
| OCC(O)CO [Glycerin] | 3 |
